# Assay comment: Eribulin plasma pharmacokinetics
# Assay type: in vivo, human
# Measurement parameters: human, plasma, intravenous, 60 mg, CL, Dose level 5: eribulin mesylate 1.4 with cisplatin 60 mg m^−2, first dose, N=6, mean (s.d.)
Where a name gives a salt, the structure may show the parent alone.

Molecule: C=C1C[C@@H]2CC[C@@]34C[C@H]5O[C@H]6[C@@H](O3)[C@H]3O[C@H](CC[C@@H]3O[C@H]6[C@H]5O4)CC(=O)C[C@@H]3[C@@H](OC)[C@@H](C[C@H](O)CN)O[C@H]3C[C@H]3O[C@@H](CC[C@@H]1O2)C[C@@H](C)C3=C [Eribulin mesylate]
clearance [mL/min]: 38.3
